# Test system: Klebsiella pneumoniae
# Procedure summary: Antibacterial activity against clinical isolate carbapenem and polymyxin resistant Klebsiella pneumoniae Koprana 100650661:1 after 18 hrs by 2 fold serial dilution method
# Format: functional
# Assay conditions: Koprana 100650661:1, 18 h
Bridge positions count the residues as written; N and C are the ends. Square brackets hold non-standard residues; d marks the D form. Peptide text beside a SMILES is read from it. * marks the point of attachment. Octanoyl = CCCCCCCC(=O)*; Dab = NCC[C@H](N)C(=O)O

Compound | Subject of test | MIC
CCCCCCCC(=O)N[C@@H](CCN)C(=O)N[C@H](C(=O)N[C@@H](CCN)C(=O)N[C@H]1CCNC(=O)[C@H]([C@@H](C)O)NC(=O)[C@H](CCCNC(=N)N)NC(=O)[C@H](CCN)NC(=O)[C@H](CC(C)C)NC(=O)[C@@H](Cc2ccccc2)NC(=O)[C@H](CCN)NC1=O)[C@@H](C)O (Octanoyl-[Dab]T[Dab][Dab][Dab][dF]L[Dab]RT; lactam 4-C) | Klebsiella pneumoniae | > 32 µg/mL
CCCCCCCC(=O)N[C@@H](CCN)C(=O)N[C@H](C(=O)N[C@@H](CCN)C(=O)N[C@H]1CCNC(=O)[C@H]([C@@H](C)O)NC(=O)[C@H](CCN)NC(=O)[C@H](CCN)NC(=O)[C@H](CC(C)C)NC(=O)[C@@H](Cc2ccccc2)NC(=O)[C@H](CCNC(=O)[C@@H](N)CCCNC(=N)N)NC1=O)[C@@H](C)O (Octanoyl-[Dab]T[Dab][Dab][Dab](Arg)[dF]L[Dab][Dab]T; lactam 4-C) | Klebsiella pneumoniae | > 32 µg/mL
CCCCCCCC(=O)N[C@@H](CCN)C(=O)N[C@H](C(=O)N[C@@H](CCN)C(=O)N[C@H]1CCNC(=O)[C@H]([C@@H](C)O)NC(=O)[C@H](CCN)NC(=O)[C@H](CCN)NC(=O)[C@H](CC(C)C)NC(=O)[C@@H](Cc2ccccc2)NC(=O)[C@H](CCNC(=O)[C@@H](N)CCC(=O)O)NC1=O)[C@@H](C)O (Octanoyl-[Dab]T[Dab][Dab][Dab](Glu)[dF]L[Dab][Dab]T; lactam 4-C) | Klebsiella pneumoniae | > 32 µg/mL

----------
# Tested on: Pseudomonas aeruginosa
# Procedure summary: Antibacterial activity against clinical isolate polymyxin resistant Pseudomonas aeruginosa FADDI-PA070 after 18 hrs by 2 fold serial dilution method
# Format: functional
# Assay conditions: FADDI-PA070, 18 h
Numbered stars: 1 amine (or outer) side, 2 acyl side, 3 side chain; on linkers, the order of the positions; unused ones are H or OH. Bridge positions count the residues as written; N and C are the ends. Square brackets hold non-standard residues; d marks the D form. Peptide text beside a SMILES is read from it. * marks the point of attachment. Bip = N[C@@H](Cc1ccc(-c2ccccc2)cc1)C(=O)O; NH(2-ClPh) = Clc1ccccc1N*; dDab = NCC[C@@H](N)C(=O)O; Octanoyl = CCCCCCCC(=O)*; Dab = NCC[C@H](N)C(=O)O; CO = O=C([*:1])[*:2]
Measured attribute: MIC

Compound | Val
CC(C)C[C@@H]1NC(=O)[C@@H](Cc2ccccc2)NC(=O)[C@H](CCN)NC(=O)[C@@H](NC(=O)[C@@H](CO)NC(=O)[C@@H](NC(=O)[C@H](CCN)NC(=O)Nc2ccccc2Cl)[C@@H](C)O)CCNC(=O)[C@H]([C@@H](C)O)NC(=O)[C@H](CCN)NC(=O)[C@H](CCN)NC1=O ({NH(2-ClPh)-CO}-[Dab]T[dS][Dab][Dab][dF]L[Dab][Dab]T; lactam 4-C) | > 32 µg/mL
CCCCCCCC(=O)N[C@@H](CCN)C(=O)N[C@H](C(=O)N[C@@H](CCN)C(=O)N[C@H]1CCNC(=O)[C@H]([C@@H](C)O)NC(=O)[C@H](CCN)NC(=O)[C@H](CCN)NC(=O)[C@H](Cc2ccc(-c3ccccc3)cc2)NC(=O)[C@@H](Cc2ccccc2)NC(=O)[C@H](CCN)NC1=O)[C@@H](C)O (Octanoyl-[Dab]T[Dab][Dab][Dab][dF][Bip][Dab][Dab]T; lactam 4-C) | 16 µg/mL
CCCCCCCC(=O)N[C@H](C(=O)N[C@@H](CCN)C(=O)N[C@H]1CCNC(=O)[C@H]([C@@H](C)O)NC(=O)[C@H](CCN)NC(=O)[C@H](CCN)NC(=O)[C@H](CC(C)C)NC(=O)[C@@H](Cc2ccccc2)NC(=O)[C@H](CCN)NC1=O)[C@@H](C)O [Octanoyl Polymixin B nonapeptide] (Octanoyl-T[Dab][Dab][Dab][dF]L[Dab][Dab]T; lactam 3-C) | > 32 µg/mL
CCCCCCCC(=O)N[C@H](CCN)C(=O)N[C@H](C(=O)NCC(=O)N[C@H]1CCNC(=O)[C@H]([C@@H](C)O)NC(=O)[C@H](CCN)NC(=O)[C@H](CCN)NC(=O)[C@H](CC(C)C)NC(=O)[C@@H](Cc2ccccc2)NC(=O)[C@H](CCN)NC1=O)[C@@H](C)O (Octanoyl-[dDab]TG[Dab][Dab][dF]L[Dab][Dab]T; lactam 4-C) | > 32 µg/mL
CCCCCCCC(=O)N[C@@H](CCN)C(=O)N[C@H](C(=O)N[C@@H](CCN)C(=O)N[C@H]1CCNC(=O)[C@H]([C@@H](C)O)NC(=O)[C@H](CCN)NC(=O)[C@H](CCN)NC(=O)[C@H](CC(C)C)NC(=O)[C@@H](Cc2ccccc2)NC(=O)[C@H](CCNC(=O)[C@@H](N)CCCNC(=N)N)NC1=O)[C@@H](C)O (Octanoyl-[Dab]T[Dab][Dab][Dab](Arg)[dF]L[Dab][Dab]T; lactam 4-C) | > 32 µg/mL
CCCCCCCC(=O)N[C@@H](CCN)C(=O)N[C@H](C(=O)N[C@H](CO)C(=O)N[C@H]1CCNC(=O)[C@H]([C@@H](C)O)NC(=O)[C@H](CCN)NC(=O)[C@H](CCN)NC(=O)[C@H](CC(C)C)NC(=O)[C@@H](Cc2ccccc2)NC(=O)[C@H](CCN)NC1=O)[C@@H](C)O (Octanoyl-[Dab]T[dS][Dab][Dab][dF]L[Dab][Dab]T; lactam 4-C) | > 32 µg/mL

----------
# Test system: Pseudomonas aeruginosa
# Procedure summary: Antibacterial activity against clinical isolate polymyxin resistant Pseudomonas aeruginosa FADDI-PA070 after 18 hrs by 2 fold serial dilution method
# Assay type: functional
# Assay conditions: FADDI-PA070, 18 h
Numbered stars: 1 amine (or outer) side, 2 acyl side, 3 side chain; on linkers, the order of the positions; unused ones are H or OH. Bridge positions count the residues as written; N and C are the ends. Square brackets hold non-standard residues; d marks the D form. Peptide text beside a SMILES is read from it. * marks the point of attachment. Benzoyl(4-OPh) = O=C(c1ccc(Oc2ccccc2)cc1)*; Phe(4-NH2) = Nc1ccc(C[C@H](N)C(=O)O)cc1; NH(2-ClPh) = Clc1ccccc1N*; hSer = N[C@@H](CCO)C(=O)O; Octanoyl = CCCCCCCC(=O)*; Dab = NCC[C@H](N)C(=O)O; CO = O=C([*:1])[*:2]
Measured attribute: MIC

Compound | Val
CC(C)C[C@@H]1NC(=O)[C@@H](Cc2ccccc2)NC(=O)[C@H](CCN)NC(=O)[C@@H](NC(=O)[C@H](CCN)NC(=O)[C@@H](NC(=O)[C@H](CCN)NC(=O)c2ccc(Oc3ccccc3)cc2)[C@@H](C)O)CCNC(=O)[C@H]([C@@H](C)O)NC(=O)[C@H](CCN)NC(=O)[C@H](CCN)NC1=O ({Benzoyl(4-OPh)}-[Dab]T[Dab][Dab][Dab][dF]L[Dab][Dab]T; lactam 4-C) | 8 mg/L
CCCCCCCC(=O)N[C@@H](CCN)C(=O)N[C@H](C(=O)N[C@@H](CCN)C(=O)N[C@H]1CCNC(=O)[C@H]([C@@H](C)O)NC(=O)[C@H](CCN)NC(=O)[C@H](CCNC(=O)[C@@H](N)CCCNC(=N)N)NC(=O)[C@H](CC(C)C)NC(=O)[C@@H](Cc2ccccc2)NC(=O)[C@H](CCN)NC1=O)[C@@H](C)O | > 32 mg/L
CCCCCCCC(=O)N[C@@H](CCN)C(=O)N[C@H](C(=O)N[C@@H](CCN)C(=O)N[C@H]1CCNC(=O)[C@H]([C@@H](C)O)NC(=O)[C@H](CCN)NC(=O)[C@H](CCN)NC(=O)[C@H](CC(C)C)NC(=O)[C@@H](Cc2ccccc2)NC(=O)[C@H](Cc2ccc(N)cc2)NC1=O)[C@@H](C)O (Octanoyl-[Dab]T[Dab][Dab][Phe(4-NH2)][dF]L[Dab][Dab]T; lactam 4-C) | > 32 mg/L
CCCCCCCC(=O)N[C@@H](CCN)C(=O)N[C@H](C(=O)N[C@@H](CCN)C(=O)N[C@H]1CCNC(=O)[C@H]([C@@H](C)O)NC(=O)[C@H](CCN)NC(=O)[C@H](Cc2ccc(N)cc2)NC(=O)[C@H](CC(C)C)NC(=O)[C@@H](Cc2ccccc2)NC(=O)[C@H](CCN)NC1=O)[C@@H](C)O | 32 mg/L
CCCCCCCC(=O)N[C@@H](CCN)C(=O)N[C@H](C(=O)N[C@@H](CCN)C(=O)N[C@H]1CCNC(=O)[C@H]([C@@H](C)O)NC(=O)[C@H](CCN)NC(=O)[C@H](CCN)NC(=O)[C@H](CC(C)C)NC(=O)[C@@H](Cc2ccccc2)NC(=O)[C@H](CCO)NC1=O)[C@@H](C)O (Octanoyl-[Dab]T[Dab][Dab][hSer][dF]L[Dab][Dab]T; lactam 4-C) | > 32 mg/L
CC(C)C[C@@H]1NC(=O)[C@@H](Cc2ccccc2)NC(=O)[C@H](CCN)NC(=O)[C@@H](NC(=O)[C@H](CCN)NC(=O)[C@@H](NC(=O)[C@H](CCN)NC(=O)Nc2ccccc2Cl)[C@@H](C)O)CCNC(=O)[C@H]([C@@H](C)O)NC(=O)[C@H](CCN)NC(=O)[C@H](CCN)NC1=O ({NH(2-ClPh)-CO}-[Dab]T[Dab][Dab][Dab][dF]L[Dab][Dab]T; lactam 4-C) | > 32 mg/L
